Target: Probable nicotinate-nucleotide adenylyltransferase (Staphylococcus aureus (strain N315));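 further: confirmatory dose-response retesting of NadD inhibitor hits first found in an ultra-high-throughput screen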
Sequence (P65502 whole entry): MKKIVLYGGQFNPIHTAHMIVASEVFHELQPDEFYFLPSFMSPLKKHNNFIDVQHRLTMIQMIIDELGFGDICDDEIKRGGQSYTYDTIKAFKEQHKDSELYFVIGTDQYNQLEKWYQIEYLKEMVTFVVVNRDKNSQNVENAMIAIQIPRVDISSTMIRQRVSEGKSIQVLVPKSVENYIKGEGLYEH
Assay type: functional, Staphylococcus aureus subsp. aureus N315
Settings: read-out: IC50_Mean
Calls of active or inactive are those of the source. How the calls were made is not given here.
property: IC50

compound	result
Cc1cc(N(CCCl)CCCl)ccc1C=NNC(=O)Cc1cc(=O)oc2cc(O)ccc12	28.7 µM (active)
Cn1c2ccccc2c2cc(/C=N/NC(=O)c3cc(O)ccc3O)ccc21	37.3 µM (active)
COc1ccc(NC(=O)N(C)C[C@H]2Oc3ccc(NC(=O)c4ccncc4)cc3C(=O)N([C@H](C)CO)C[C@@H]2C)cc1	40.4 µM (active)
CN(CCC#N)C(=O)COC(=O)c1c2c(nc3ccccc13)/C(=C/c1ccco1)CC2	16.9 µM (active)
